test: clinical; details: human, in vivo, iv, half-life
test_readout: half-life

Exercise: Name the reported half-life value associated with the compound CC(C)C[C@H](NC(=O)[C@H](CCc1ccccc1)NC(=O)CN1CCOCC1)C(=O)N[C@@H](Cc1ccccc1)C(=O)N[C@@H](CC(C)C)C(=O)[C@@]1(C)CO1
Key: < 1 h

---

test: clinical; details: human, in vivo, 27 mg/m2, t 1/2
test_readout: half-life (min)
Write down the numeric answer in min and omit the unit.

Exercise: Any idea what half-life was measured for CC(C)C[C@H](NC(=O)[C@H](CCc1ccccc1)NC(=O)CN1CCOCC1)C(=O)N[C@@H](Cc1ccccc1)C(=O)N[C@@H](CC(C)C)C(=O)[C@@]1(C)CO1 ?
Key: 21

---

experiment: clinical; details: human, in vivo, 20 mg/m2, CL
test_readout: clearance (mL/min)
Give the value in mL/min but do not write mL/min after it.

Exercise: Sample CC(C)C[C@H](NC(=O)[C@H](CCc1ccccc1)NC(=O)CN1CCOCC1)C(=O)N[C@@H](Cc1ccccc1)C(=O)N[C@@H](CC(C)C)C(=O)[C@@]1(C)CO1 [carfilzomib] — what was its clearance?
Key: 4380

---

assay: clinical; settings: human, in vivo, 36 mg/m2, V ss
test_readout: Vd (L)
The response must be a number in L with no trailing unit.

Exercise: Which Vd is reported for this compound? CC(C)C[C@H](NC(=O)[C@H](CCc1ccccc1)NC(=O)CN1CCOCC1)C(=O)N[C@@H](Cc1ccccc1)C(=O)N[C@@H](CC(C)C)C(=O)[C@@]1(C)CO1
Key: 9.33

---

experiment: clinical; settings: human, in vivo, 27 mg/m2, CL
test_readout: clearance (mL/min)
Report the value in mL/min with no unit label.

Exercise: clearance lookup needed for CC(C)C[C@H](NC(=O)[C@H](CCc1ccccc1)NC(=O)CN1CCOCC1)C(=O)N[C@@H](Cc1ccccc1)C(=O)N[C@@H](CC(C)C)C(=O)[C@@]1(C)CO1 [carfilzomib] , thanks.
Key: 2500

---

test: clinical; conditions: human, in vivo, 20 mg/m2, AUClast
test_readout: AUC(0-t)
Please state the value followed by its unit.

Exercise: Name the reported AUC(0-t) value associated with the compound CC(C)C[C@H](NC(=O)[C@H](CCc1ccccc1)NC(=O)CN1CCOCC1)C(=O)N[C@@H](Cc1ccccc1)C(=O)N[C@@H](CC(C)C)C(=O)[C@@]1(C)CO1
Key: 251 ng·h/mL

---

assay: clinical; conditions: human, in vivo, 36 mg/m2, AUClast
test_readout: AUC(0-t) (ng·h/mL)
Enter your answer as a number in ng·h/mL; do not include the unit.

Exercise: Recorded AUC(0-t) for CC(C)C[C@H](NC(=O)[C@H](CCc1ccccc1)NC(=O)CN1CCOCC1)C(=O)N[C@@H](Cc1ccccc1)C(=O)N[C@@H](CC(C)C)C(=O)[C@@]1(C)CO1 , please?
Key: 594

---

experiment: clinical; conditions: human, in vivo, 27 mg/m2, Cmax
test_readout: Cmax

Exercise: GET /values?readout=Cmax&item= CC(C)C[C@H](NC(=O)[C@H](CCc1ccccc1)NC(=O)CN1CCOCC1)C(=O)N[C@@H](Cc1ccccc1)C(=O)N[C@@H](CC(C)C)C(=O)[C@@]1(C)CO1 [carfilzomib]
Key: 4230 ng/mL
